- tested system: T1, rat PTH1R on UMR106 cells (rat, UniProt P25961 27-591)
- T1 construct: whole, on cells; also called UMR106 (Endogenous Rat PTH1R); native rat PTH1R
- T1 sequence (looked up): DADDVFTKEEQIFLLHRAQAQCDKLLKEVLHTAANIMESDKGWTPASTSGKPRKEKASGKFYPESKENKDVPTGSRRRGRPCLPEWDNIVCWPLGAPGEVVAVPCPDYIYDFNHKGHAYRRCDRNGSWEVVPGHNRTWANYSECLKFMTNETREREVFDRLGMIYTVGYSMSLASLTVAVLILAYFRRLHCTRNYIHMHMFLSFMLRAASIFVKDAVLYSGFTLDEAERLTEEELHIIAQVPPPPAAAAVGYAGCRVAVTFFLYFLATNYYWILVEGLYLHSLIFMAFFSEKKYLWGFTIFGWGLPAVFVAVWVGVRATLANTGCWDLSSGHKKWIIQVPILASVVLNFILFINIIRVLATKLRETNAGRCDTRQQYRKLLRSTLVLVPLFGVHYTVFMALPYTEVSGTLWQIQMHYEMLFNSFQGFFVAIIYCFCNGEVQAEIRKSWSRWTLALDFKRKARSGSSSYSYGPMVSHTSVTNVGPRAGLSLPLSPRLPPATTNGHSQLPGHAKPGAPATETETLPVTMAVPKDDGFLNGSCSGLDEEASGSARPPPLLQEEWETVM
- assay summary: flow cytometry, 1 hr at 4 C
observable: binding result

| binder | observed value |
| --- | --- |
| XPA.85.332 (antibody, V domains shown, Light-chain-shuffled variant of XPA.85.012) VH: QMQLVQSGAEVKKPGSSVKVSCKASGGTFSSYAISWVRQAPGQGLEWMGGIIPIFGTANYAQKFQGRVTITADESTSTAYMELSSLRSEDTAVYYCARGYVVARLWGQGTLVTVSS VL: ETTLTQSPAFMSASVGDRVTITCQASQDINNFLNWYQQKPGKAPKFLIYDASNLEKGVPSKFSGRGSGTEFTLTISSLQPEDIATYYCQQYRDFPLTFGQGTRLEIK | binds |
| XPA.85.343 (antibody, V domains shown, Light-chain-shuffled variant of XPA.85.012) VH: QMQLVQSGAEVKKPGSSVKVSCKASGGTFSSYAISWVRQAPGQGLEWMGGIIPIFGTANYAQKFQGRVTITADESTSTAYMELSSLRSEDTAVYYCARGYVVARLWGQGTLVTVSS VL: DVVMTQTPLSLSVTPGQPASISCKSSQSLLHIDGRTYLYWYLQKAGQPPQLLIYEVSNRFSGVPDRFSGSGSGTDFTLKISRVEAEDVGVYYCMQSIHFPLTFGGGTKLEIK | binds |
| XPA.85.344 (antibody, V domains shown, Light-chain-shuffled variant of XPA.85.012) VH: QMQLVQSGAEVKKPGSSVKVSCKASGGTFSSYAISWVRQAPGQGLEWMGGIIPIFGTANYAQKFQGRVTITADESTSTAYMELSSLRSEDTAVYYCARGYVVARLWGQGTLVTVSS VL: DVVMTQTPLSLSVTPGQPASFSCKSTQSLLWRDGNTYLYWYLQKPGQSPQLLIYEVSGRFSGVPERFSGSGSGTDFTLEISRVEAEDVGVYYCMQSIHFPLTFGGGTKLEIK | binds |
